Values from patent US10363239B2

- System: mu opiate receptor (MOR)
- assay_protocol: MOR agonist activity using [35S]GTPγS binding assay in striatal membranes
- Type: biochemical
- condition_description: Series B; 0.1 μM compound, relative to DAMGO
metric: % DAMGO (0.1 μM) (%)
Output spec: scalar in %, unitless text.

Previously resolved entries follow.
Item: COc1ccc(C(=O)CC2c3c(cc4c(c3OC)OCO4)CC[N+]2(C)C)c(F)c1 (stereo not shown) | System: mu opiate receptor (MOR) | % DAMGO (0.1 μM): 82.3

Item: COc1cc(F)ccc1C(=O)CC1c2c(cc3c(c2OC)OCO3)CC[N+]1(C)C (stereo not shown) | System: mu opiate receptor (MOR) | % DAMGO (0.1 μM): 95.3

Item: COc1ccc(CCCCC2c3c(cc4c(c3OC)OCO4)CC[N+]2(C)C)cc1 (stereo not shown) | System: mu opiate receptor (MOR) | % DAMGO (0.1 μM): 98.9

Let us move to another entry and its % DAMGO (0.1 μM).
Item: COc1ccc(CCC(=O)CC2c3c(cc4c(c3OC)OCO4)CC[N+]2(C)C)cc1OC (stereo not shown) | System: mu opiate receptor (MOR) | % DAMGO (0.1 μM): 39.6

* * *

- Tested on: mu opiate receptor (MOR)
- assay_protocol: MOR agonist activity using [35S]GTPγS binding assay in striatal membranes
- Assay type: biochemical
- condition_description: Series C-2; 1 μM compound + β-FNA, relative to DAMGO + BFNA
// classify: if (% DAMGO + BFNA < 300%) Y else N

Ask: Does the reported % DAMGO + BFNA of the following compound sit strictly below 300%? CC(=O)c1ccc(S(=O)(=O)N2CCC3(CC2)NCCS3)cc1
Result: N

---
Ask: Does the reported % DAMGO + BFNA of the following compound sit strictly below 300%? O=C1CN(Cc2ccccc2)C2(CCN(CC3CC3)CC2)N1 [Compound C0125M]
Result: N

Ask: Does the reported % DAMGO + BFNA of the following compound sit strictly below 300%? CN1CCC2(CC1)NCC(=O)N2Cc1ccccc1 [Compound C0105M]
Result: Y

* * *

- System: mu opiate receptor (MOR)
- assay_protocol: MOR agonist activity using [35S]GTPγS binding assay in striatal membranes
- Assay type: biochemical
- condition_description: Series B; 1 μM compound, relative to DAMGO
Attribute: % DAMGO (1 μM)
Output spec: scalar in %, unitless text.

Item: COc1ccc(C(=O)CC2c3c(cc4c(c3OC)OCO4)CC[N+]2(C)C)cc1C (stereo not drawn) | System: mu opiate receptor (MOR) | % DAMGO (1 μM): 104.7

Let us move to another entry and its % DAMGO (1 μM).
Item: COCOc1ccc(C(=O)CC2c3c(cc4c(c3OC)OCO4)CC[N+]2(C)C)cc1C (stereo not drawn) | System: mu opiate receptor (MOR) | % DAMGO (1 μM): 47.2

* * *

- target_desc: FLNA pentapeptide of SEQ ID NO: 1 (Bn-VAKGL) (Homo sapiens, UniProt P21333)
- assay_protocol: FITC-NLX-based FLNA screening assay (inhibition of FITC-naloxone binding to Bn-VAKGL on streptavidin plates)
- condition_description: read-out: Percent Binding Inhibition, FLNA-binding compound 0.1 μM; 10 nM FITC-NLX
Parameter threshold = 50%. Response is class 1 when inhibition at 0.1 µM meets or exceeds it, else class 0.

Please review the following examples before continuing.
Ask: Confirm if inhibition at 0.1 µM reported for the compound O=S(=O)(c1ccc(Oc2ccccc2)cc1)N1CCC2(CC1)OCCN2S(=O)(=O)c1ccc(Oc2ccccc2)cc1 [Compound C0149M] is 50% or above.
Result: class 1

Ask: Confirm if inhibition at 0.1 µM reported for the compound CC(O)c1ccc(S(=O)(=O)N2CCC3(CC2)OCCN3S(=O)(=O)c2ccc(C(C)O)cc2)cc1 (centres unmarked) is 50% or above.
Result: class 0

Ask: Confirm if inhibition at 0.1 µM reported for the compound COc1ccc(OCC(O)CN2CCc3ccccc3C2)cc1 (centres unmarked) is 50% or above.
Result: class 0

Ask: Confirm if inhibition at 0.1 µM reported for the compound COc1ccc(C(=O)CC2c3c(cc4c(c3OC)OCO4)CC[N+]2(C)C)cc1 (centres unmarked) is 50% or above.
Result: class 0

Ask: Confirm if inhibition at 0.1 µM reported for the compound COc1cccc(S(=O)(=O)N2CCC3(CC2)OCCN3S(=O)(=O)c2cccc(OC)c2)c1 is 50% or above.
Result: class 0

Ask: Confirm if inhibition at 0.1 µM reported for the compound CC1CCC(C(C)C)C(OCC(O)Cn2cccc2)C1 (centres unmarked) is 50% or above.
Result: class 1

Lab note: next compound to report on.
Ask: Confirm if inhibition at 0.1 µM reported for the compound CN1CCC2(CC1)NCC(=O)N2Cc1ccccc1 [Compound C0105M] is 50% or above.
Result: class 1

* * *

Attribute: MOR agonist activity, percent [35S]GTPγS binding at the stated compound concentration
- System: mu opiate receptor (MOR)
- assay_protocol: MOR agonist activity using [35S]GTPγS binding assay in striatal membranes
- Assay type: biochemical
- condition_description: Series B; 0.1 μM compound; [35S]GTPγS binding to Gαo, striatal membranes
Output spec: scalar in %, unitless text.

Previously resolved entries follow.
compound COc1ccc(CCC(=O)CC2c3c(cc4c(c3OC)OCO4)CC[N+]2(C)C)cc1 (stereo not shown) [Compound B0016] , MOR agonist activity, percent [35S]GTPγS binding at the stated compound concentration observed: 167.7

compound COc1c2c(cc3c1C(CC(=O)c1ccc(N4CCOCC4)cc1)[N+](C)(C)CC3)OCO2 (stereo not shown) [Compound B0004] , MOR agonist activity, percent [35S]GTPγS binding at the stated compound concentration observed: 170.3

compound COc1ccc(CCC(O)CC2c3c(cc4c(c3OC)OCO4)CC[N+]2(C)C)cc1 (stereo not shown) [Compound B0049] , MOR agonist activity, percent [35S]GTPγS binding at the stated compound concentration observed: 181.6

---
compound CCOc1ccc(C(=O)CC2c3c(cc4c(c3OC)OCO4)CC[N+]2(C)C)cc1F (stereo not shown) [Compound B0020] , MOR agonist activity, percent [35S]GTPγS binding at the stated compound concentration observed: 51.6

* * *

Attribute: inhibition at 0.01 µM
- target_desc: FLNA pentapeptide of SEQ ID NO: 1 (Bn-VAKGL) (Homo sapiens, UniProt P21333)
- assay_protocol: FITC-NLX-based FLNA screening assay (inhibition of FITC-naloxone binding to Bn-VAKGL on streptavidin plates)
- condition_description: read-out: Percent Binding Inhibition, FLNA-binding compound 0.01 μM; 10 nM FITC-NLX
Output spec: scalar in %, unitless text.

molecule COc1ccc(C(=O)CC2c3c(cc4c(c3OC)OCO4)CC[N+]2(C)C)c(F)c1 (stereo not shown) , inhibition at 0.01 µM observed: 40.2

molecule COc1cccc(OC)c1CC(=O)CC1c2c(cc3c(c2OC)OCO3)CC[N+]1(C)C (stereo not shown) , inhibition at 0.01 µM observed: 46.6

molecule COc1c2c(cc3c1C(CC(=O)Cc1ccc(Br)cc1)[N+](C)(C)CC3)OCO2 (stereo not shown) , inhibition at 0.01 µM observed: 40.9

molecule CC1CCC(C(C)C)C(OCC(O)CN(C(C)C)C(C)C)C1 (stereo not shown) , inhibition at 0.01 µM observed: 49.3

molecule CC1CCC(C(C)C)C(OCC(O)Cn2cccc2)C1 (stereo not shown) , inhibition at 0.01 µM observed: 46.4

molecule CC(=O)c1ccc(S(=O)(=O)N2CCOC23CCN(C)CC3)cc1 [Compound C0093M] , inhibition at 0.01 µM observed: 44.8

---
molecule COc1ccccc1CC(O)CC1c2c(cc3c(c2OC)OCO3)CC[N+]1(C)C (stereo not shown) , inhibition at 0.01 µM observed: 45.1

molecule CS(=O)(=O)c1ccc(S(=O)(=O)N2CCC3(CC2)OCCN3S(=O)(=O)c2ccc(S(C)(=O)=O)cc2)cc1 , inhibition at 0.01 µM observed: 41.7

molecule COCOc1ccc(CCC(=O)CC2c3c(cc4c(c3OC)OCO4)CC[N+]2(C)C)cc1 (stereo not shown) , inhibition at 0.01 µM observed: 40

molecule COc1ccc(S(=O)(=O)N2CCOC23CCN(S(=O)(=O)c2ccc(C(C)=O)cc2)CC3)cc1 , inhibition at 0.01 µM observed: 30.8

* * *

- System: mu opiate receptor (MOR)
- assay_protocol: MOR agonist activity using [35S]GTPγS binding assay in striatal membranes
- Type: biochemical
- condition_description: Series C-2; 0.1 μM compound, relative to DAMGO
Attribute: % DAMGO (0.1 μM)
Output spec: scalar in %, unitless text.

Previously resolved entries follow.
molecule CCCCN1CCC2(CC1)OCCN2S(=O)(=O)c1ccc(C(C)=O)cc1 [Compound C0101M] , % DAMGO (0.1 μM) observed: 82.5

molecule CC(=O)c1ccc(S(=O)(=O)N2CCOC23CCN(CC2CC2)CC3)cc1 [Compound C0095M] , % DAMGO (0.1 μM) observed: 107.4

---
molecule CC(=O)c1ccc(S(=O)(=O)N2CCC3(CC2)OCCN3S(=O)(=O)c2ccc(C(C)=O)cc2)cc1 , % DAMGO (0.1 μM) observed: 126.8

molecule O=[N+]([O-])c1ccc(S(=O)(=O)N2CCC3(CC2)NCCS3)cc1 , % DAMGO (0.1 μM) observed: 102.8
